target: AChE (Homo sapiens); format: biochemical; settings: 10 μM
Sequence (P22303 32-614): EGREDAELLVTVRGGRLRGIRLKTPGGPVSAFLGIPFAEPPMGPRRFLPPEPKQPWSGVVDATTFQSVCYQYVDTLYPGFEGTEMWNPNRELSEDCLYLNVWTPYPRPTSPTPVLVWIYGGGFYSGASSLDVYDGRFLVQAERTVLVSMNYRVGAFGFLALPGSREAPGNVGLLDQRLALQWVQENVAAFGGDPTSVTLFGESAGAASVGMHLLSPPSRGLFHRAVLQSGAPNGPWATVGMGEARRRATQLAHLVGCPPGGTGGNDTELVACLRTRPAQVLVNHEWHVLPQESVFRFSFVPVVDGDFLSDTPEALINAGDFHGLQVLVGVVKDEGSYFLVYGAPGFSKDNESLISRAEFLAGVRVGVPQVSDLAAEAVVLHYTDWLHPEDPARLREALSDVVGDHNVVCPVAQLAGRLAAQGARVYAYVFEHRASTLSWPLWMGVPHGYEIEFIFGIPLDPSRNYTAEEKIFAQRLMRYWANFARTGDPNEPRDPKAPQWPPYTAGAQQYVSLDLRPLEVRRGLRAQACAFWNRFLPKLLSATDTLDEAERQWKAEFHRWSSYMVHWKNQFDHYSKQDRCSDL
Field: AChEI (%) 10 μM. Provide a value for each of the molecules that follow.
Give bare numbers, in %.

// below: answered molecules
{"MOLECULE": "C#CCN(C(=O)Oc1cccc([C@H](C)N(C)C)c1)[C@H](C)Cc1ccccc1", "AChEI (%) 10 μM": 52}
{"MOLECULE": "C[C@@H](c1cccc(OC(=O)N(C)[C@@H](C)Cc2ccccc2)c1)N(C)C", "AChEI (%) 10 μM": 97}
{"MOLECULE": "C[C@@H](c1cccc(OC(=O)N(C)CCC(Oc2ccc(C(F)(F)F)cc2)c2ccccc2)c1)N(C)C (stereo partly shown)", "AChEI (%) 10 μM": 76}
{"MOLECULE": "C[C@H](Cc1ccccc1)NC(=O)Oc1cccc([C@H](C)N(C)C)c1", "AChEI (%) 10 μM": 79}
{"MOLECULE": "C[C@@H](c1cccc(OC(=O)N(C)CC[C@H](Oc2cccc3ccccc23)c2cccs2)c1)N(C)C", "AChEI (%) 10 μM": 100}
{"MOLECULE": "Cc1ccccc1O[C@H](CCN(C)C(=O)Oc1cccc([C@H](C)N(C)C)c1)c1ccccc1", "AChEI (%) 10 μM": 89}

# return AChEI (%) 10 μM for each item in the list
1. C[C@@H](Cc1ccccc1)NC(=O)Oc1cccc([C@H](C)N(C)C)c1
2. C#CCN(C(=O)Oc1cccc([C@@H](C)N(C)C)c1)[C@H](C)Cc1ccccc1
3. COc1ccccc1CC(C)N(C)C(=O)Oc1cccc([C@H](C)N(C)C)c1 (stereo partly shown)
4. C[C@@H](c1cccc(OC(=O)N(C)CCCC2c3ccccc3C=Cc3ccccc32)c1)N(C)C
5. C[C@@H](Cc1ccccc1)NC(=O)Oc1ccc2c(c1)[C@]1(C)CCN(C)[C@@H]1N2C

Output line:
1: 76; 2: 31; 3: 95; 4: 99; 5: 94

# return AChEI (%) 10 μM for each item in the list
1. COCCCC/C(=N\OCCNC(=O)Oc1cccc([C@H](C)N(C)C)c1)c1ccc(C(F)(F)F)cc1
2. C[C@@H](c1cccc(OC(=O)N(C)CCC=C2c3ccccc3CCc3ccccc32)c1)N(C)C

Output line:
76
99

----------
biological target: butylryl cholinesterase (Homo sapiens, UniProt P06276); experiment: Inhibition of butyrylcholinesterase; type: biochemical; conditions: read-out: Inhibition of BuChE (%) 10 μM
Sequence (P06276 29-602): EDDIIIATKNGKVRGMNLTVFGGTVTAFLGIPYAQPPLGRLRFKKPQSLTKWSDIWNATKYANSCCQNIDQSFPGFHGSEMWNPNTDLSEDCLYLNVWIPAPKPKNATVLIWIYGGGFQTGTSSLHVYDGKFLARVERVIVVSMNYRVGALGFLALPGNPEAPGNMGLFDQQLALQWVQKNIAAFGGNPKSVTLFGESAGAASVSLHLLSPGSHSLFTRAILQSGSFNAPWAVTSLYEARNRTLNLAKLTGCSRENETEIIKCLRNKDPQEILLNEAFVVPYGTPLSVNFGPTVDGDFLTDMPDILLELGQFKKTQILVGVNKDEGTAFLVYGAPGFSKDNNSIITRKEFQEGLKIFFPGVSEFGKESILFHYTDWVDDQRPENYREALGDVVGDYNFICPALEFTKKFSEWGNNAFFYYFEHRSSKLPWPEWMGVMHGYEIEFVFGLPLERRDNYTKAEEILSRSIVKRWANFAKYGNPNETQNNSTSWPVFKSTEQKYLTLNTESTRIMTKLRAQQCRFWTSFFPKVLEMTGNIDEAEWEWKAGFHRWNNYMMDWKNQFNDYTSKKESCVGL
QUANTITY_NAME: inhibition at 10 µM (%)
Give bare numbers, in %.

// below: answered compounds
{"COMPOUND": "C[C@H](Cc1ccccc1)N(C)C(=O)Oc1cccc([C@H](C)N(C)C)c1 [Compound 7, S-riva-l-methamphetamine]", "UNIT_ANNOTATION": "%", "ENDPOINT_RESULT": 17}
{"COMPOUND": "CCN(C)C(=O)Oc1cccc([C@H](C)N(C)C)c1 [Compound 1, S-rivastigmine, reference compound]", "UNIT_ANNOTATION": "%", "ENDPOINT_RESULT": 100}

Lab note: next compound to report on.
Input line: Data request, read-out inhibition at 10 µM, for C[C@H](Cc1ccccc1)NC(=O)Oc1cccc([C@H](C)N(C)C)c1 [Compound 9, S-riva-l-amphetamine]
Output line: 90

----------
Field: BuChEI (%) 1 μM. Provide a value for each of the compounds that follow.
target: BuChE (Homo sapiens); test: In vitro screening assay, BuChE inhibition; type: biochemical; details: 1 μM
One number for each entry, in %.

{"COMPOUND": "C[C@@H](c1cccc(OC(=O)N(C)[C@@H](C)Cc2ccccc2)c1)N(C)C [Compound 13, S-riva-d-methamphetamine]", "MEASURED_TARGET": "BuChE (Homo sapiens)", "UNIT_ANNOTATION": "%", "ENDPOINT_RESULT": 25}
{"COMPOUND": "C[C@@H](c1cccc(OC(=O)N(C)CCC=C2c3ccccc3CCc3ccccc32)c1)N(C)C [Compound 5A, S-riva-nortriptyline]", "MEASURED_TARGET": "BuChE (Homo sapiens)", "UNIT_ANNOTATION": "%", "ENDPOINT_RESULT": 24}

Input line: Data request, read-out BuChEI (%) 1 μM, for C[C@H](Cc1ccccc1)NC(=O)Oc1cccc([C@H](C)N(C)C)c1 [Compound 9, S-riva-l-amphetamine]
Output line: 27

----------
target: BuChE (Homo sapiens); experiment: In vitro screening assay, BuChE inhibition; type: biochemical; conditions: 10 μM
Lab note: compare BuChEI (%) 10 μM against 50%. Equal or greater, write rule met. Smaller, write rule not met.

{"COMPOUND": "COCCCC/C(=N\\OCCNC(=O)Oc1cccc([C@H](C)N(C)C)c1)c1ccc(C(F)(F)F)cc1 [Compound 8, S-riva-fluvoxamine]", "CLASS_ASSIGNMENT": "rule not met"}

Input line: Entry C[C@H](Cc1ccccc1)N(C)C(=O)Oc1cccc([C@H](C)N(C)C)c1 [Compound 7, S-riva-l-methamphetamine] : is its BuChEI (%) 10 μM no less than 50%?
Output line: rule not met

Input line: Entry C#CCN(C(=O)Oc1cccc([C@H](C)N(C)C)c1)[C@H](C)Cc1ccccc1 [Compound 11, S-riva-desmethylselegiline] : is its BuChEI (%) 10 μM no less than 50%?
Output line: rule not met

Input line: Entry C[C@H](Cc1ccccc1)NC(=O)Oc1cccc([C@H](C)N(C)C)c1 [Compound 9, S-riva-l-amphetamine] : is its BuChEI (%) 10 μM no less than 50%?
Output line: rule met

Input line: Entry COc1ccccc1CC(C)N(C)C(=O)Oc1cccc([C@H](C)N(C)C)c1 (stereo partly shown) [Compound 15, S-riva-methoxyphenamine] : is its BuChEI (%) 10 μM no less than 50%?
Output line: rule not met

Input line: Entry C[C@@H](c1cccc(OC(=O)N(C)CCCC2c3ccccc3C=Cc3ccccc32)c1)N(C)C [Compound 6, S-riva-protriptyline] : is its BuChEI (%) 10 μM no less than 50%?
Output line: rule met

Input line: Entry C[C@@H](c1cccc(OC(=O)N(C)[C@@H](C)Cc2ccccc2)c1)N(C)C [Compound 13, S-riva-d-methamphetamine] : is its BuChEI (%) 10 μM no less than 50%?
Output line: rule met

----------
Field: inhibition at 10 µM. Provide a value for each of the molecules that follow.
molecular target: butylryl cholinesterase (Homo sapiens, UniProt P06276); assay: Inhibition of butyrylcholinesterase; type: biochemical; settings: read-out: Inhibition of BuChE (%) 10 μM
One number for each entry, in %.

// below: answered molecules
{"MOLECULE": "COc1ccccc1CC(C)N(C)C(=O)Oc1cccc([C@H](C)N(C)C)c1 (stereo partly shown)", "UNIT_ANNOTATION": "%", "ENDPOINT_RESULT": 30}
{"MOLECULE": "C[C@@H](Cc1ccccc1)NC(=O)Oc1ccc2c(c1)[C@]1(C)CCN(C)[C@@H]1N2C", "UNIT_ANNOTATION": "%", "ENDPOINT_RESULT": 28}
{"MOLECULE": "C[C@@H](Cc1ccccc1)NC(=O)Oc1cccc([C@H](C)N(C)C)c1", "UNIT_ANNOTATION": "%", "ENDPOINT_RESULT": 20}

Lab note: next molecule to report on.
Input line: Data request, read-out inhibition at 10 µM, for "C[C@@H](c1cccc(OC(=O)N(C)[C@@H](C)Cc2ccccc2)c1)N(C)C"
Output line: 95

----------
biological target: human recombinant acetylcholinesterase (Homo sapiens, UniProt P22303); construct: purchased Sigma Chemical Co (St. Louis, Mo.) C1682; test: biochemical
QUANTITY_NAME: pIC50
Answers are plain numbers, as −log10 of the molar value.

{"COMPOUND": "C[C@@H](c1cccc(OC(=O)N2CCN(C3=Nc4ccccc4Oc4ccc(Cl)cc43)CC2)c1)N(C)C", "ENDPOINT_RESULT": 4.68}

# return pIC50 for each item in the list
1. C[C@@H](c1cccc(OC(=O)N(C)CCC=C2c3ccccc3CCc3ccccc32)c1)N(C)C
2. C[C@@H](c1cccc(OC(=O)N(C)CCCC2c3ccccc3C=Cc3ccccc32)c1)N(C)C

Output line:
1: 6.30; 2: 6.30

----------
Field: pIC50. Provide a value for each of the compounds that follow.
Target: human recombinant acetylcholinesterase (Homo sapiens, UniProt P22303)
Construct: purchased Sigma Chemical Co (St. Louis, Mo.) C1682
Assay: biochemical
Procedure: All reagents employed in this experiment were of analytical grade. Acetylthiocholine iodide and 5,5′-dithiobis-(2-nitro)benzoic acid (DTNB) and human recombinant acetylcholinesterase (C1682) were purchased from Sigma Chemical Co (St. Louis, Mo.). The enzyme, compound or stigmine and buffer were preincubated for 30 minutes. […] Hydrolysis of acetylthiocholine was monitored indirectly by measurement of the formation of the conjugate between thiocholine and DTNB.
Answers are plain numbers, as −log10 of the molar value.

// below: answered compounds
{"COMPOUND": "CC(CC1CCCCC1)N(C)C(=O)Oc1cccc([C@H](C)N(C)C)c1 (some centres unmarked) [Compound 16, S-riva-propylhexedrine]", "MEASURED_TARGET": "human recombinant acetylcholinesterase (Homo sapiens, UniProt P22303)", "ENDPOINT_RESULT": 6.05}
{"COMPOUND": "C[C@@H](c1cccc(OC(=O)N(C)CCC(Oc2ccc(C(F)(F)F)cc2)c2ccccc2)c1)N(C)C (some centres unmarked) [Compound 7A, S-riva-fluoxetine]", "MEASURED_TARGET": "human recombinant acetylcholinesterase (Homo sapiens, UniProt P22303)", "ENDPOINT_RESULT": 5.32}
{"COMPOUND": "COc1ccccc1CC(C)N(C)C(=O)Oc1cccc([C@H](C)N(C)C)c1 (some centres unmarked) [Compound 15, S-riva-methoxyphenamine]", "MEASURED_TARGET": "human recombinant acetylcholinesterase (Homo sapiens, UniProt P22303)", "ENDPOINT_RESULT": 5.96}

Input line: Data request, read-out pIC50, for C[C@@H](c1cccc(OC(=O)N(C)CCCN2c3ccccc3CCc3ccccc32)c1)N(C)C [Compound 4, S-riva-desipramine]
Output line: 6.70
